Please go through the items and note down their GMMIC.
test system: Candida; test: Compound was tested for inherent antifungal geometric minimum inhibitory concentration (GMMIC) against Candida albicans and Candida tropicalis in serial dilution from 64 to 0.0313 ug/mL; assay type: functional
State the answer as a number, implicitly in µg/mL.

Req: Request body: readout GMMIC, system Candida, query `CCC(CC)n1ncn(-c2ccc(N3CCN(c4ccc(OC[C@H]5CC[C@](Cn6cncn6)(c6ccc(F)cc6F)O5)cc4)CC3)cc2)c1=O` . Return the value.
Resp: 0.02

Req: Request body: readout GMMIC, system Candida, query CCC(C)n1ncn(-c2ccc(N3CCN(c4ccc(OCC5COC(Cn6cncn6)(c6ccc(Cl)cc6Cl)O5)cc4)CC3)cc2)c1=O (racemic) . Return the value.
Resp: 0.04

Req: Request body: readout GMMIC, system Candida, query `CCC(CC)n1ncn(-c2ccc(N3CCN(c4ccc(OC[C@H]5CO[C@](Cn6cncn6)(c6ccc(F)cc6F)C5)cc4)CC3)cc2)c1=O` . Return the value.
Resp: 0.27
